- Tested on: HCC1569
- testName: cell number relative to DMSO (% of DMSO); higher = more cells (less growth inhibition / toxicity)
- measurementContext: concentration: 10 µM; 24 h

compound: Cc1cc(C)c(S(=O)(=O)Nc2cccc(C(F)(F)F)c2)c(C)c1
cell number: 99.3

compound: Cc1cc(Nc2ncc3cc(-c4c(Cl)cccc4Cl)c(=O)n(C)c3n2)ccc1F
cell number: 36.3

compound: Cc1ccccc1N1CCN(S(=O)(=O)CC23CCC(CC2NC(=O)C(N)CCS(C)(=O)=O)C3(C)C)CC1.Cl (stereo not drawn)
cell number: 101

compound: CCCCc1c(-c2ccc(OC)cc2)[nH]c2nccnc12
cell number: 94.7

compound: COc1ccccc1N1CCN(CCCCNC(=O)c2ccc3ccccc3c2)CC1 [N-{4-[4-(2-methoxyphenyl)-1-piperazinyl]butyl}-2-naphthamide]
cell number: 96.6

compound: COc1ccc(-c2cc(=O)c3ccc(O)cc3o2)cc1
cell number: 98.5

compound: CCCCCCCCC(=O)NCc1cc(OC)c(O)cc1I [N-(4-hydroxy-2-iodo-5-methoxybenzyl)nonanamide]
cell number: 96.2

compound: CC1C(NC(=O)C(=NOC(C)(C)C(=O)O)c2csc(N)n2)C(=O)N1S(=O)(=O)O (stereo not drawn)
cell number: 105

###

- System: TDF
- testName: cell number relative to DMSO (% of DMSO); higher = more cells (less growth inhibition / toxicity)
- measurementContext: concentration: 10 µM; 24 h
The threshold is inclusive: cell number of exactly 100 counts as T; values below receive F.

compound: Nc1ccc(N2C(=O)c3ccccc3C2=O)c(Cl)c1 [N-(4-Amino-2-chlorophenyl)phthalimide]
classification: T
//
compound: C[N+]1(C)CCCC1C(=O)[O-].Cl (configuration not stated)
classification: T
//
compound: Cl.N=C(N=C(N)N)N1CCOCC1 [Moroxydine.HCl]
classification: T
//
compound: CCCn1c(=O)c2[nH]c(C3CCCC3)nc2n(CCC)c1=O
classification: F
//
compound: Cc1c2oc3c(C)ccc(C(=O)NC4C(=O)NC(C(C)C)C(=O)N5CCCC5C(=O)N(C)CC(=O)N(C)C(C(C)C)C(=O)OC4C)c3nc-2c(C(=O)NC2C(=O)NC(C(C)C)C(=O)N3CCCC3C(=O)N(C)CC(=O)N(C)C(C(C)C)C(=O)OC2C)c(N)c1=O (configuration not stated)
classification: F
//
compound: OC1C=CC(Br)C(O)C1O (mixture of isomers) [6-Bromo-4-cyclohexene-1,2,3-triol Mixed Isomers]
classification: T

###

Documented H1.0 immunofluorescence intensity across a set of compounds
- Test system: HCC1569
- testName: H1.0 immunofluorescence intensity relative to DMSO (% of DMSO); higher = stronger H1.0 induction, active = 140 or more
- measurementContext: concentration: 10 µM; 24 h
propertyLabel: H1.0 immunofluorescence intensity

compound: O=C([O-])c1cc(=O)c2c(OCC(O)COc3cccc4oc(C(=O)[O-])cc(=O)c34)cccc2o1.[Na+].[Na+] [Disodium Cromoglycate]
propertyLabel: H1.0 immunofluorescence intensity
resultNumber: 103
//
compound: Cc1ccc(C(=O)Nc2ccc(S(=O)(=O)[O-])c3cc(S(=O)(=O)[O-])cc(S(=O)(=O)[O-])c23)cc1NC(=O)c1cccc(NC(=O)Nc2cccc(C(=O)Nc3cc(C(=O)Nc4ccc(S(=O)(=O)[O-])c5cc(S(=O)(=O)[O-])cc(S(=O)(=O)[O-])c45)ccc3C)c2)c1.[Na+].[Na+].[Na+].[Na+].[Na+].[Na+] [Suramin hexasodium]
propertyLabel: H1.0 immunofluorescence intensity
resultNumber: 102
//
compound: N[C@@H](CCCC(=O)O)C(=O)O
propertyLabel: H1.0 immunofluorescence intensity
resultNumber: 93.6
//
compound: C=CC(C)(O)CCC1C(=C)CCC2C(C)(C)CCCC12C (stereo not given)
propertyLabel: H1.0 immunofluorescence intensity
resultNumber: 90.8
//
compound: CNc1ncnc2c1ncn2C1OC(CO)C(O)C1O (stereo not given)
propertyLabel: H1.0 immunofluorescence intensity
resultNumber: 110
//
compound: CCCCCC=CCC=CCCCCCCCCC(=O)O [10(Z),13(Z)-Nonadecadienoic acid]
propertyLabel: H1.0 immunofluorescence intensity
resultNumber: 103
//
compound: CCC=CCC=CCC=CCC=CC=CC(O)CCCC(=O)O (racemic)
propertyLabel: H1.0 immunofluorescence intensity
resultNumber: 99
//
compound: C=C1C(=O)OC2C1CCC(C)=CCCC1(C)OC21 (stereo not given) [Parthenolide]
propertyLabel: H1.0 immunofluorescence intensity
resultNumber: 149
//
compound: O=[N+]([O-])c1cc(S(=O)(=O)Nc2ccc(O)c3ccccc23)ccc1Cl [4-chloro-N-(4-hydroxy-1-naphthyl)-3-nitrobenzenesulfonamide]
propertyLabel: H1.0 immunofluorescence intensity
resultNumber: 115
//
compound: Cl.Nc1cc(Nc2ccc(S(N)(=O)=O)cc2)ncn1
propertyLabel: H1.0 immunofluorescence intensity
resultNumber: 102
//
compound: COc1ccc(S(=O)(=O)N(CCO)c2ccccc2CN(C)CC=Cc2ccc(Cl)cc2)cc1
propertyLabel: H1.0 immunofluorescence intensity
resultNumber: 183
//
compound: Cc1cc2cc3c(C)cc(=O)oc3c(C)c2o1
propertyLabel: H1.0 immunofluorescence intensity
resultNumber: 87.5
//
compound: O=C1c2c(O)cc(O)cc2OC(c2ccc(O)c(O)c2)C1O (single isomer, unassigned; (+)) [(+)-Taxifolin]
propertyLabel: H1.0 immunofluorescence intensity
resultNumber: 102
//
compound: Nc1ccn(C2CCC(CO)O2)c(=O)n1 (stereo not given) [2',3'-dideoxycytidine]
propertyLabel: H1.0 immunofluorescence intensity
resultNumber: 87.7
//
compound: CN(C)CCN(Cc1cccs1)c1ccccn1.Cl [Methapyrilene hydrochloride]
propertyLabel: H1.0 immunofluorescence intensity
resultNumber: 92.7

###

- System: TDF
- testName: cell number relative to DMSO (% of DMSO); higher = more cells (less growth inhibition / toxicity)
- measurementContext: concentration: 10 µM; 24 h
# cell number values compiled below

compound: Br.CN1CCc2c(cc(O)c(O)c2Cl)C(c2cccc(Cl)c2)C1 (configuration not stated)
studyTarget: TDF
cell number: 81.1
--
compound: CC1COc2c(N3CCN(C)CC3)c(F)cc3c(=O)c(C(=O)O)cn1c23 (configuration not stated) [Levofloxacin]
studyTarget: TDF
cell number: 100
--
compound: CC(C)CCC[C@@H](C)[C@H]1CC[C@H]2[C@@H]3CC(=O)[C@H]4C[C@@H](O)CC[C@]4(C)[C@H]3CC[C@]12C [(3beta,5alpha)-3-hydroxycholestan-6-one]
studyTarget: TDF
cell number: 92.5
--
compound: CC(C)C(=O)Nc1ccc([N+](=O)[O-])c(C(F)(F)F)c1 [Flutamide]
studyTarget: TDF
cell number: 66.1
--
compound: CCCCCCCCCCCC=CCCCCCC(=O)O [7(Z)-Nonadecenoic acid]
studyTarget: TDF
cell number: 104
--
compound: CC1=NN(c2ccc(C(=O)O)cc2)C(=O)/C1=C\c1ccc(-c2cc(C)c(C)cc2[N+](=O)[O-])o1
studyTarget: TDF
cell number: 87.2
--
compound: CCCC(=O)NCCc1c2n(c3ccc(OC)cc13)CCCc1ccccc1-2
studyTarget: TDF
cell number: 109
--
compound: CC1C(=O)OC2C(O)C34C5CC(C(C)(C)C)C36C(OC(=O)C6O)OC4(C(=O)O5)C12O (configuration not stated) [Ginkgolide B]
studyTarget: TDF
cell number: 104
--
compound: NCC1OC(OC2C(N)CC(N)C(OC3OC(CO)C(O)C(N)C3O)C2O)C(O)C(O)C1O.O=S(=O)(O)O (configuration not stated) [Kanamycin sulfate]
studyTarget: TDF
cell number: 106
--
compound: COc1ccc(Nc2nc(N)nc(CN3CCCCC3)n2)cc1
studyTarget: TDF
cell number: 90.5
--
compound: CCOC(=O)Oc1c(OC)cc(C(=O)OC2CC3CN4CCc5c([nH]c6cc(OC)ccc56)C4CC3C(C(=O)OC)C2OC)cc1OC (configuration not stated) [Syrosingopine]
studyTarget: TDF
cell number: 104
--
compound: O=C(O)Cc1sc(-c2ccccc2)nc1-c1ccc(Cl)cc1 [Fentiazac]
studyTarget: TDF
cell number: 107
--
compound: O=c1c2ccccc2nc2n1CCc1c-2[nH]c2ccccc12 [Rutaecarpine]
studyTarget: TDF
cell number: 103
--
compound: CN(C)NN=C1N=CN=C1C(N)=O [Dacarbazine]
studyTarget: TDF
cell number: 102
--
compound: O=C(Oc1cc(S(=O)(=O)c2ccccc2)ccc1[N+](=O)[O-])c1ccc(Cl)cc1 [2-nitro-5-(phenylsulfonyl)phenyl 4-chlorobenzoate]
studyTarget: TDF
cell number: 87.8
--
compound: CC(=O)Oc1ccccc1C(=O)O [Acetylsalicylic Acid]
studyTarget: TDF
cell number: 99
--
compound: N#CC(=C(N)Sc1ccc(N)cc1)c1ccccc1C(F)(F)F
studyTarget: TDF
cell number: 115

###

- Test system: TDF
- testName: cell number relative to DMSO (% of DMSO); higher = more cells (less growth inhibition / toxicity)
- measurementContext: concentration: 10 µM; 24 h
Output: class label from cell number. Mapping: low = under 90, intermediate = from 90 up to 100, high = 100 and over

compound: Cc1c(C)c2c(c(C)c1O)CCC(C)(COc1ccc(CC3SC(=O)NC3=O)cc1)O2 (centres undefined)
classification: intermediate

compound: CN(CC=CC#CC(C)(C)C)Cc1cccc2ccccc12
classification: high

compound: CC12C=CC(=O)C=C1CCC1C3CC(O)C(O)(C(=O)CO)C3(C)CC(O)C12F (centres undefined)
classification: high

compound: CN1CCN(CCC=C2c3ccccc3Sc3ccc(S(=O)(=O)N(C)C)cc32)CC1.Cl [Thiothixene hydrochloride]
classification: high

compound: COC(=O)Nc1nc2ccc(C(=O)c3ccc(F)cc3)cc2[nH]1
classification: low

compound: CN(C)CCCOC1C(C(O)CO)OC2OC(C)(C)OC21.Cl (centres undefined) [Amiprilose hydrochloride]
classification: high
